Listed below: melting point values for each entry.

{"ENTRY SMILES": "Cc1ccc(OCc2ccc(-c3ccc(COc4ccc(C)cc4)cc3)cc2)cc1", "melting point [°C]": 206}
{"ENTRY SMILES": "c1ccc(OCc2ccc(-c3ccc(COc4ccccc4)cc3)cc2)cc1", "melting point [°C]": 176}
{"ENTRY SMILES": "Cc1ccccc1OCc1ccc(-c2ccc(COc3ccccc3C)cc2)cc1", "melting point [°C]": 209}
{"ENTRY SMILES": "CC(C)(C)c1ccc(OCc2ccc(-c3ccc(COc4ccc(C(C)(C)C)cc4)cc3)cc2)cc1", "melting point [°C]": 218}

====

Assay: Metal adsorptivity: marked xylene treated with metal shavings, GC analysis
Assay type: physicochemical
Conditions: 100 mL marked xylene, 5 grams metal shavings, room temperature, 8 hours

{"ENTRY SMILES": "c1ccc(OCc2ccc(-c3ccc(COc4ccccc4)cc3)cc2)cc1", "Marker [%]": 104}
